molecular target: Oxytocin receptor (Rattus norvegicus); test: Biological activity against Oxytocin receptor in rat
Sequence (P70536 whole entry): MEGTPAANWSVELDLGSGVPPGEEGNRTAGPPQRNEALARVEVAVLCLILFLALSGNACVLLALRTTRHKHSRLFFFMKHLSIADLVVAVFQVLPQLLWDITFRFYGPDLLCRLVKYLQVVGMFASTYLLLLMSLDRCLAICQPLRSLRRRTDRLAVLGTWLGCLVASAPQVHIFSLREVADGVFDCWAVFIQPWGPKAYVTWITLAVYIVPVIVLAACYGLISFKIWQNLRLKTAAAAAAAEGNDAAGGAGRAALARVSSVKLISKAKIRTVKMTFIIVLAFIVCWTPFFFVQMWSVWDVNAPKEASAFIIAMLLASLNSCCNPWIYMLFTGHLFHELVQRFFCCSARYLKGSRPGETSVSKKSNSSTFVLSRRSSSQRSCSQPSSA
Kindly state pA2 for each of the entries shown.
Give bare numbers.

CC[C@H](C)[C@H](NC(=O)[C@@H](Cc1c[nH]c2ccccc12)NC(=O)CC1(S)CCCCC1)C(=O)N[C@H](CCCNC(N)=O)C(=O)N[C@@H](CC(N)=O)C(=O)N[C@@H](CS)C(=O)N1CCC[C@H]1C(=O)N[C@@H](CCCN=C(N)N)C(=O)NCC(N)=O :: 5.51

Turning now to a further compound:
Query CC[C@H](C)[C@@H]1NC(=O)[C@@H](Cc2c[nH]c3ccccc23)NC(=O)CC2(CCCCC2)SSC[C@@H](C(=O)N2CCC[C@H]2C(=O)N[C@@H](CCCN=C(N)N)C(=O)NCC(N)=O)NC(=O)[C@H](CC(N)=O)NC(=O)[C@@H]([C@H](C)O)NC1=O yields pA2 of 4.95

====

biological target: Angiotensin-converting enzyme (Homo sapiens, UniProt P12821); assay: Biological activity was measured against Angiotensin I converting enzyme; settings: read-out: Log 1/IC50 (converted)
Sequence (P12821 whole entry): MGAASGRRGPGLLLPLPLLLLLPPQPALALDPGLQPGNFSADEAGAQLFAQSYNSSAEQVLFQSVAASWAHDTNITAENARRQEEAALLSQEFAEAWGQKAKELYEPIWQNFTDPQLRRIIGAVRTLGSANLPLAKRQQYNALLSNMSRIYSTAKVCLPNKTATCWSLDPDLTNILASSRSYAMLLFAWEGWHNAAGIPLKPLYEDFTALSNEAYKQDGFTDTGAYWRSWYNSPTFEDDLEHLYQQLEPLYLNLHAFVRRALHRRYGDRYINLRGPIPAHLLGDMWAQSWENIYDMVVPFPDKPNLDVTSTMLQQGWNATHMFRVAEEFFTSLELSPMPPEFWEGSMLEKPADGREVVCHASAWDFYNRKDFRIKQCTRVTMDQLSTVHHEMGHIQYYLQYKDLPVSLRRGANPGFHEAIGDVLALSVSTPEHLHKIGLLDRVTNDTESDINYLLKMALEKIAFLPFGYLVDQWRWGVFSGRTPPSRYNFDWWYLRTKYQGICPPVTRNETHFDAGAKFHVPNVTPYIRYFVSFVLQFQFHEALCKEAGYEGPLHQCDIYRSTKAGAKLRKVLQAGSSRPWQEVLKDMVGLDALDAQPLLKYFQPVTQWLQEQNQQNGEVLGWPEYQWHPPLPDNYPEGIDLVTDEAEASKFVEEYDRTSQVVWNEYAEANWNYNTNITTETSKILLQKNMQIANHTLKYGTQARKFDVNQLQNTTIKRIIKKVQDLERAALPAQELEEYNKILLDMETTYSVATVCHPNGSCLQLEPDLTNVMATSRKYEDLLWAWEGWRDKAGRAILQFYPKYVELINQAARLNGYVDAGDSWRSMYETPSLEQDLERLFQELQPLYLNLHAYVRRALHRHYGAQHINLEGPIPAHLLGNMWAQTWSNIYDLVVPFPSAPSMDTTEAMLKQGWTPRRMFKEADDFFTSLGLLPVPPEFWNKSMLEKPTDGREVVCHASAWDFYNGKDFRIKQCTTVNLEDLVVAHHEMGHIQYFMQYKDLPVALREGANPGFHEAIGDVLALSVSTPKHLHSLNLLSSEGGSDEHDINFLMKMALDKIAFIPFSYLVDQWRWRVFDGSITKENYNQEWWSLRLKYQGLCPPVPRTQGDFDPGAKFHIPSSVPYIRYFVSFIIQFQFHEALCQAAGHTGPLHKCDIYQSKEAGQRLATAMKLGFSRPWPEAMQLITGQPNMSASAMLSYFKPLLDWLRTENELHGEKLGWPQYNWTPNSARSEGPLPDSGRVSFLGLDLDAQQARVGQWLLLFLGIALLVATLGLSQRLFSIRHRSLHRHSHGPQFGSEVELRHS
Peptide text beside a SMILES is read from it.
Mark class 1 only for IC50 values smaller than 1 mM; exact matches and larger values are class 0.

Below are worked cases with known answers.
C[C@H](N)C(=O)NCC(=O)O (H-Ala-Gly-OH) :: class 0
CC(C)[C@H](N)C(=O)NCC(=O)O [VAL-GLY] (H-Val-Gly-OH) :: class 0

Ask: Confirm or reject: IC50 of N[C@@H](CO)C(=O)NCC(=O)O (H-Ser-Gly-OH) lies strictly below 1 mM
Reply: class 0

Ask: Given the entry N[C@@H](Cc1c[nH]cn1)C(=O)NCC(=O)O (H-His-Gly-OH) , would its reported IC50 be below 1 mM?
Reply: class 0

Ask: Is it true that IC50 reported for C[C@H](N)C(=O)N[C@@H](C)C(=O)O (H-Ala-Ala-OH) is less than 1 mM?
Reply: class 1

====

Consider the following molecules; for each one, report its Kb.
target: UniProt:P16610; assay: Antagonism against Tachykinin receptor 2 in rat vas deferens(RVD); format: functional; details: read-out: pA2 (converted)
Sequence (P16610 whole entry): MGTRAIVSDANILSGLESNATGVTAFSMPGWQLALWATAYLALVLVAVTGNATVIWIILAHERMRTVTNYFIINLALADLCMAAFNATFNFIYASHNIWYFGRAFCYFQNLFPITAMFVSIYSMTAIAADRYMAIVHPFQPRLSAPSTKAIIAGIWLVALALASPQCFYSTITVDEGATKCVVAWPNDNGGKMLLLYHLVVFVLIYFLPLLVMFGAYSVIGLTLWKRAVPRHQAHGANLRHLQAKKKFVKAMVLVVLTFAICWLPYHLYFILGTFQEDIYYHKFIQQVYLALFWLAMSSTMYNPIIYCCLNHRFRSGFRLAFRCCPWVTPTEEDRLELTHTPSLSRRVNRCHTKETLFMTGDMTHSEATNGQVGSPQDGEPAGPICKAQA

CC(C)[C@H](NC(=O)[C@@H](Cc1c[nH]c2ccccc12)NC(=O)[C@H](Cc1ccc(O)cc1)NC(=O)[C@@H](N)CC(=O)O)C(=O)N[C@H](Cc1c[nH]c2ccccc12)C(=O)N[C@H](Cc1c[nH]c2ccccc12)C(=O)N[C@@H](CCCN=C(N)N)C(=O)O :: 251 nM
CC(C)[C@@H](NC(=O)[C@@H](Cc1c[nH]c2ccccc12)NC(=O)[C@@H](Cc1ccc(O)cc1)NC(=O)[C@@H](N)CC(=O)O)C(=O)N[C@H](Cc1c[nH]c2ccccc12)C(=O)N[C@H](Cc1c[nH]c2ccccc12)C(=O)N[C@H](CCCN=C(N)N)C(=O)O :: 851 nM
CC(C)C[C@H](NC(=O)[C@@H](Cc1c[nH]c2ccccc12)NC(=O)[C@@H](Cc1c[nH]c2ccccc12)NC(=O)[C@@H](NC(=O)[C@@H](Cc1c[nH]c2ccccc12)NC(=O)[C@H](Cc1ccc(O)cc1)NC(=O)[C@@H](N)CC(=O)O)C(C)C)C(=O)O :: 79.4 nM

I have 4 molecules here; please give me Kb for each one.
1. CC(C)[C@H](NC(=O)[C@@H](Cc1c[nH]c2ccccc12)NC(=O)[C@H](Cc1ccc(O)cc1)NC(=O)[C@@H](N)CC(=O)O)C(=O)N[C@H](Cc1c[nH]c2ccccc12)C(=O)N[C@H](Cc1c[nH]c2ccccc12)C(=O)N[C@@H](Cc1ccccc1)C(=O)O
2. CC(C)[C@H](NC(=O)[C@@H](Cc1c[nH]c2ccccc12)NC(=O)[C@H](Cc1c[nH]c2ccccc12)NC(=O)[C@@H](N)CC(=O)O)C(=O)N[C@H](Cc1c[nH]c2ccccc12)C(=O)N[C@H](Cc1c[nH]c2ccccc12)C(=O)N[C@@H](CCCN=C(N)N)C(=O)O
3. CC(C)[C@H](NC(=O)[C@@H](Cc1c[nH]c2ccccc12)NC(=O)[C@H](Cc1ccc(O)cc1)NC(=O)[C@@H](N)CC(=O)O)C(=O)N[C@H](Cc1c[nH]c2ccccc12)C(=O)N[C@H](Cc1c[nH]c2ccccc12)C(=O)N[C@H](Cc1c[nH]c2ccccc12)C(=O)O
4. CC(C)C[C@H](NC(=O)[C@@H](Cc1c[nH]c2ccccc12)NC(=O)[C@@H](NC(=O)[C@@H](Cc1c[nH]c2ccccc12)NC(=O)[C@H](Cc1ccc(O)cc1)NC(=O)[C@@H](N)CC(=O)O)C(C)C)C(=O)N[C@@H](CCCN=C(N)N)C(=O)O

Reply:
288 nM
339 nM
155 nM
224 nM

Kb in this record for CSCC[C@H](NC(=O)[C@H](CC(C)C)NC(=O)CNC(=O)[C@@H](Cc1c[nH]c2ccccc12)NC(=O)[C@H](Cc1ccccc1)NC(=O)[C@@H](Cc1c[nH]c2ccccc12)NC(=O)[C@@H](N)CC(=O)O)C(=O)O : 7760 nM

From: ChEMBL document CHEMBL1128468
